System: PIM2
TEST_PARAMETERS: concentration: 1 μM, replicates: in singlicate; n = 1
A collection of compounds and their measured %Inh
Form entry: value (%) — number only.

Enquiry: Checklist item: %Inh tested on PIM2, entry Oc1cc(Nc2ccnc3cc(I)ccc23)ccc1F [GW552771] , value?
Return: 0

Enquiry: Try this compound too: Nc1n[nH]c2cnc(-c3ccccc3)cc12 [SB-642124]
Return: 0

Enquiry: Ok, now COc1cc(Nc2nccc(N3CCC(NC(=O)Nc4cccc(C(C)=O)c4)C3)n2)cc(OC)c1OC (stereo not shown) [GSK1379753]
Return: 0

Enquiry: Query Cc1ccc(S(=O)(=O)Nc2ccc(Nc3nccc(Nc4cccc5[nH]ncc45)n3)cc2)cc1 [GSK581271] next
Return: 0

Enquiry: How about this compound: c1ccc(Oc2ccc(Nc3ccnc4cc(-c5ccc(CNCCN6CCOCC6)o5)ccc34)cc2)nc1 [GW567145]
Return: 0

Others:
Enquiry: Request body: readout %Inh, system PIM2, query `CCc1ccc(-c2ccc3c(c2)-c2c(cnn2C)S(=O)(=O)N3C)cc1` . Return the value.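 Note: KINOMEscan kinase panel screen.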
Return: 0

Enquiry: How about this compound: O=C(Nc1cccc(-c2nn3ccccc3c2-c2ccnc(Nc3cccc(F)c3)n2)c1)c1c(F)ccc(F)c1Cl [GSK357952]
Return: 0

Enquiry: Request: CCn1c(-c2nonc2N)nc2c(C#CC(C)(C)O)ncc(OCCCCN)c21.O=C(O)C(F)(F)F.O=C(O)C(F)(F)F [GSK507274]
Return: 85

Enquiry: What do we get for CN(c1ccc(NC(=O)Nc2cc(C(F)(F)F)ccc2F)cc1)c1ccnc(Nc2ccc(S(N)(=O)=O)cc2)n1 [GW809893] ?
Return: 0

Enquiry: Cool, now O=c1[nH]cc(-c2ccc(N3CCOCC3)cc2)c2sc(-c3cn[nH]c3)cc12 [GSK2276055]
Return: 51

Enquiry: Continue with `COc1cccc(C(=O)Nc2cccc(Oc3ccc4nc(NC(=O)C5CC5)cn4n3)c2)c1`
Return: 11
